system: acpP::gfp reporter transcript; experiment: In vitro translation (PURExpress) and anti-GFP western blot; type: biochemical, Salmonella enterica; conditions: acpP-RNA : ASO 1 : 2.5; unconjugated ASO; RNA 100 nM, 2 h 37 °C; relative to water control
Oligonucleotides are written 5' to 3', each unit as a sugar letter and its base; * is a phosphorothioate linkage, no mark a phosphodiester; rarer units and linkages stand in square brackets, end groups in braces. Plain capitals give the bases only. d = 2'-deoxy (DNA)
MEASURED_ATTRIBUTE: GFP Expression (%)

Guide cases for GFP Expression (%), answers given:
PNA: 10mer peptide nucleic acid antisense oligomer, sequence CTCATACTCT, targeting acpP (all peptide nucleic acid (PNA)) | 13.0%
DNA-PTO: 10mer phosphorothioate-modified DNA antisense oligomer, sequence CTCATACTCT, targeting acpP (antisense dC*dT*dC*dA*dT*dA*dC*dT*dC*dT) | 104.6%

Lab request: please report GFP Expression (%) under test system acpP::gfp reporter transcript for RNA-OMe: 10mer 2'-methylated RNA antisense oligomer, sequence CTCATACTCT, targeting acpP (all 2'-O-methyl, backbone and T or U not given here)
90.2%

Lab request: please report GFP Expression (%) under test system acpP::gfp reporter transcript for LNA: 10mer 2'-4'-locked RNA antisense oligomer, sequence CTCATACTCT, targeting acpP (all LNA, backbone and methylation of C not given here)
8.0%

###

In this section, each of the substances is paired with its reported GFP Expression (%).
tested on: acpP::gfp reporter transcript; experiment: In vitro translation (PURExpress) and anti-GFP western blot; type: biochemical, Salmonella enterica; settings: acpP-RNA : ASO 1 : 10; unconjugated ASO; RNA 100 nM, 2 h 37 °C; relative to water control
Please give a number only; it is taken to be in %.

Guide cases for GFP Expression (%), answers given:
LNA: 10mer 2'-4'-locked RNA antisense oligomer, sequence CTCATACTCT, targeting acpP (all LNA, backbone and methylation of C not given here) | 4.5
RNA-F: 10mer 2'-fluorinated RNA antisense oligomer, sequence CTCATACTCT, targeting acpP (all 2'-fluoro, backbone and T or U not given here) | 58.3

Requested field: GFP Expression (%). Item: RNA-MOE: 10mer 2'-methoxyethylated RNA antisense oligomer, sequence CTCATACTCT, targeting acpP (all 2'-MOE, backbone and methylation of C not given here)
3.4

###

system: outer membrane of Salmonella; assay: Outer membrane permeabilization (NPN fluorescence); assay type: cell-based, Salmonella enterica serovar Typhimurium strain SL1344; set-up: key: -: Effect strength is represented by additional (+) signs.; Effect strength is represented by additional (+) signs.; ++: Effect strength is represented by additional (+) signs.; +++: Effect strength is represented by additional (+) signs; conditions: summary grade; ASO conjugated to the carrier peptide
Oligonucleotides are written 5' to 3', each unit as a sugar letter and its base; * is a phosphorothioate linkage, no mark a phosphodiester; rarer units and linkages stand in square brackets, end groups in braces. Plain capitals give the bases only. d = 2'-deoxy (DNA)
MEASURED_ATTRIBUTE: Outer-membrane permeation

Guide cases for Outer-membrane permeation, answers given:
DNA-PTO: 10mer phosphorothioate-modified DNA antisense oligomer, sequence CTCATACTCT, targeting acpP (antisense dC*dT*dC*dA*dT*dA*dC*dT*dC*dT) | -
PNA: 10mer peptide nucleic acid antisense oligomer, sequence CTCATACTCT, targeting acpP (all peptide nucleic acid (PNA)) | ++
RNA-OMe: 10mer 2'-methylated RNA antisense oligomer, sequence CTCATACTCT, targeting acpP (all 2'-O-methyl, backbone and T or U not given here) | -
RNA-MOE: 10mer 2'-methoxyethylated RNA antisense oligomer, sequence CTCATACTCT, targeting acpP (all 2'-MOE, backbone and methylation of C not given here) | -
RNA-F: 10mer 2'-fluorinated RNA antisense oligomer, sequence CTCATACTCT, targeting acpP (all 2'-fluoro, backbone and T or U not given here) | -
PMO: 10mer phosphorodiamidate morpholino antisense oligomer, sequence CTCATACTCT, targeting acpP (all phosphorodiamidate morpholino (PMO)) | ++

Now look at this one.
Requested field: Outer-membrane permeation. Item: LNA: 10mer 2'-4'-locked RNA antisense oligomer, sequence CTCATACTCT, targeting acpP (all LNA, backbone and methylation of C not given here)
-
